Kindly state melting point for each of the entries shown.

Ask: What value of melting point has been reported for the following compound? COC(=O)C1=C(C)Nc2cc[nH]c(=O)c2C1c1ccccc1C(F)(F)F (stereo not given)
Reply: 295 °C

Ask: Also, CN(C)S(=O)(=O)Cc1ccccc1S(N)(=O)=O please.
Reply: 145 to 150 °C

Ask: Also, C[C@@H](NC(=O)c1c[nH]c2ncc(-c3nn(C)c4cc(F)ccc34)nc12)C(=O)N1CC(C#N)C1 please.
Reply: 270 to 277 °C

Ask: Also, O=C(O)c1ccc(NC(=O)c2ccccc2-c2ccccc2)cc1Cl please.
Reply: 217 to 219 °C

Ask: Also, CCCCCCCCOc1cc(-c2cccc([N+](=O)[O-])c2)c(OCC(=O)O)c(-c2cccc([N+](=O)[O-])c2)c1 please.
Reply: 129 to 132 °C

Ask: Also, ClC1c2ccccc2-c2ccccc21 please.
Reply: 87 to 89 °C

Ask: Also, NC(=O)c1ccccc1CNC(=S)NC(=O)c1ccccc1 please.
Reply: 147 to 150 °C

Ask: Also, N=C(NC1CC1)NN1CCc2cc(Cl)ccc21 please.
Reply: 146 to 149 °C

Ask: Also, CN(C)C1CCc2c(ccc(O)c2C(N)=O)C1 (stereo not given) please.
Reply: 65 to 66 °C

Ask: Also, CC(=O)OC(=CC(=O)O)CC(=O)Nc1cccc(F)c1 please.
Reply: 117 °C
